Test: Cell Viability - LYMP1-003 - Assay at 24 hr (AID 963)
Conditions: LYMP1-003 lymphoblastoid cell viability; series mostly up to 92.2 µM
Activity calls are given as the source filed them. Calls follow the shape of the dose curve; as a rule, active = well fitted cell-killing curve with a large enough effect; inconclusive = small, poorly fitted or top-dose-only effect; inactive = flat fitted curve, though single readings scatter.
Allowed answers: True (active), False (inactive)

O=[N+]([O-])c1cc([N+](=O)[O-])c2ccc(S(=O)(=O)O)cc2c1O | False
CCCCCCCC[N+](CCCCCCCC)(CCCCCCCC)CCCCCCCC | True
ClC1=C(Cl)C(Cl)(Cl)C(Cl)=C1Cl | False
C=C(C)c1ccccc1 | False
CCC(C)Nc1ccc(NC(C)CC)cc1 (stereo not given) | True
Nc1ccc2cc3ccccc3cc2c1 | False
O=C1OC2(c3cc(Br)c(O)c(Br)c3Oc3c2cc(Br)c(O)c3Br)c2c(Cl)c(Cl)c(Cl)c(Cl)c21 | False
CCCCCC/C(C=O)=C\c1ccccc1 | False

Write down the call the test reported for this molecule. Item: CO[C@H]1/C=C/O[C@@]2(C)Oc3c(C)c(O)c4c(O)c(c5c(c4c3C2=O)NC2(CCN(CC(C)C)CC2)N=5)=NC(=O)/C(C)=C\C=C\[C@H](C)[C@H](O)[C@@H](C)[C@@H](O)[C@@H](C)[C@H](OC(C)=O)[C@@H]1C
False

Write down the call the test reported for this molecule. Item: C/C=C1\C(=O)C[C@H]2[C@@H]3CCC4=CC(=O)CC[C@]4(C)[C@H]3CC[C@]12C
False
